Here the recorded Murine IL-21R-BaF3 Proliferation IC50 is given for each entry.
# TESTED_TARGET: murine IL-21R expressed on cells (murine, UniProt Q9JHX3 20-529)
# Sequence (Q9JHX3 20-529 limits assumed): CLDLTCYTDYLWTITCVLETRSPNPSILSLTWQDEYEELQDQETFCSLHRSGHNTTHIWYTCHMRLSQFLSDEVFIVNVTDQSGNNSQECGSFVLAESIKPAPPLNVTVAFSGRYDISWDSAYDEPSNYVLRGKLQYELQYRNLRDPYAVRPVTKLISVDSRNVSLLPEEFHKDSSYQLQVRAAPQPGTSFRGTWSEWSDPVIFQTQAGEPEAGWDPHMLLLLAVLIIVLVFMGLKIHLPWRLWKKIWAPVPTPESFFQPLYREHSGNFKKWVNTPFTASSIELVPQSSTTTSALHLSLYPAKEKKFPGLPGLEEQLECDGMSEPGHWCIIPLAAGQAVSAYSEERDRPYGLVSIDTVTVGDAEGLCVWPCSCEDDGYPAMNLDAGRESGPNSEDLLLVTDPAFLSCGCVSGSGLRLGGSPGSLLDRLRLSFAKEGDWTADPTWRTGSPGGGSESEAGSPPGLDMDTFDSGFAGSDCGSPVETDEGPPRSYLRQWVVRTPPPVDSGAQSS
# EXPERIMENT_NOTES: cell-based or functional assay
Form entry: value (nM) — number only.

Could you tell me which Murine IL-21R-BaF3 Proliferation IC50 is on file for AbT (antibody, human IgG1, V domains shown, CDR3 graft, residue limits derived as for m29; also called VHP/VL9; VHPTM/VL9) VH: QVQLQESGPGLVKPSETLSLTCAVSGYSISSGYYWGWIRQPPGKGLEWIGSISHTGNTYYNPPLKSRVTISVDTSKNQFSLKLSSVTAADTAVYYCARGGGISRPEYWGQGTLVTVSS VL: SSELTQDPAVSVALGQTVRITCQGDSLRTYYASWYQQKPGQAPVLVIYGKHKRPSGIPDRFSGSSSGNTASLTITGAQAEDEADYYCVARSNKGNPHVLFGGGTQLTVL ?
0.093

***
Could you tell me which Murine IL-21R-BaF3 Proliferation IC50 is on file for AbO (antibody, human IgG1, V domains shown, CDR3 graft, residue limits derived as for m29; also called VHP/VL16; VHPTM/VL16) VH: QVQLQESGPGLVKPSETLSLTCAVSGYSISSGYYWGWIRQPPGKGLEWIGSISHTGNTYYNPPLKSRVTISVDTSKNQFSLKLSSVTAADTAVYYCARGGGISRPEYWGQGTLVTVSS VL: SSELTQDPAVSVALGQTVRITCQGDSLRTYYASWYQQKPGQAPVLVIYGKHKRPSGIPDRFSGSSSGNTASLTITGAQAEDEADYYCVTRSAKGNPHVLFGGGTQLTVL ?
0.065
